Assay target: Mu-type opioid receptor (Cavia porcellus)
Sequence (P97266 whole entry): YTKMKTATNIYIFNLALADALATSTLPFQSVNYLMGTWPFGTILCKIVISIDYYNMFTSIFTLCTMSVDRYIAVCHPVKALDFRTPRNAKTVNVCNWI
Assay notes: Agonist activity at mu-type opioid receptor in guinea pig ileum assessed as inhibition of electrically evoked muscle contraction
Format: tissue-based
Reported IC50 values are given for each entry in this list.
// note: answer is a bare numeric in nM

Known IC50 results, listed for orientation:
Structure smiles string	IC50 [nM]
C=C(C(N)=O)[C@@H](NC(=O)[C@H](Cc1c[nH]c2ccccc12)NC(=O)[C@@H]1CCN(C(=O)[C@@H](N)Cc2ccc(O)cc2)C1)c1ccco1	1.67
C=C(C(=O)O)[C@@H](NC(=O)[C@H](Cc1c[nH]c2ccccc12)NC(=O)[C@@H]1CCCN1C(=O)[C@@H](N)Cc1c(C)cc(O)cc1C)c1ccccc1	0.467

Shifting focus to the molecule that follows.
Mu-type opioid receptor (Cavia porcellus) assay, molecule C=C(C(N)=O)[C@@H](NC(=O)[C@H](Cc1c[nH]c2ccccc12)NC(=O)[C@H]1CCN(C(=O)[C@@H](N)Cc2ccc(O)cc2)C1)c1ccccc1 , recorded IC50 = 3.21

###

Assay target: Mu-type opioid receptor (Mus musculus, UniProt P42866)
Sequence (P42866 whole entry): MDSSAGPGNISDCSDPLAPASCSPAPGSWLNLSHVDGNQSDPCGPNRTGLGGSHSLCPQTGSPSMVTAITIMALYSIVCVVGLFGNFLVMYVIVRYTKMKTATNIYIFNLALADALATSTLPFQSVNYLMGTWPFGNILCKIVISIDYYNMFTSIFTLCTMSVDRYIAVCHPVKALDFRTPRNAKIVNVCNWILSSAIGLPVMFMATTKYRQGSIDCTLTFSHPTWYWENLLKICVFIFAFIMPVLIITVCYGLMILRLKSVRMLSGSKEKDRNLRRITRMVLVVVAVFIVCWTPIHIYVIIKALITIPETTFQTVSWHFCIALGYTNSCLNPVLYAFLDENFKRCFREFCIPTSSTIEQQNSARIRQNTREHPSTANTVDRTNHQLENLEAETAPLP
Assay notes: Agonist activity at mu-type opioid receptor in Kunming mouse vas deferens assessed as inhibition of electrically evoked muscle contraction
Measurement label: pIC50
FYI, pIC50 means -log10 of a concentration in mol per litre.

For C=C(C(N)=O)[C@@H](NC(=O)[C@H](Cc1c[nH]c2ccccc12)NC(=O)[C@H]1CCN(C(=O)[C@@H](N)Cc2c(C)cc(O)cc2C)C1)c1ccco1 the compound record lists pIC50 as 9.02

For C=C(C(=O)O)[C@@H](NC(=O)[C@H](Cc1c[nH]c2ccccc12)NC(=O)[C@@H]1CCCN1C(=O)[C@@H](N)Cc1c(C)cc(O)cc1C)c1ccco1 the compound record lists pIC50 as 9.27

For C=C(C(N)=O)[C@@H](NC(=O)[C@H](Cc1c[nH]c2ccccc12)NC(=O)[C@@H]1CCN(C(=O)[C@@H](N)Cc2c(C)cc(O)cc2C)C1)c1ccco1 the compound record lists pIC50 as 9.26

###

Values of Ki reported for Mu-type opioid receptor (Homo sapiens, UniProt P35372) appear below.
// note: answer is a bare numeric in nM

Structure smiles string	Ki [nM]
C=C(C(N)=O)[C@@H](NC(=O)[C@H](Cc1c[nH]c2ccccc12)NC(=O)[C@H]1CCN(C(=O)[C@@H](N)Cc2c(C)cc(O)cc2C)C1)c1ccco1	0.0128
C=C(C(N)=O)[C@@H](NC(=O)[C@H](Cc1c[nH]c2ccccc12)NC(=O)[C@@H]1CCN(C(=O)[C@@H](N)Cc2ccc(O)cc2)C1)c1ccccc1	0.296
C=C(C(N)=O)[C@@H](NC(=O)[C@H](Cc1c[nH]c2ccccc12)NC(=O)[C@@H]1CCN(C(=O)[C@@H](N)Cc2ccc(O)cc2)C1)c1ccco1	0.165

Shifting focus to the molecule that follows.
For C=C(C(N)=O)[C@@H](NC(=O)[C@H](Cc1c[nH]c2ccccc12)NC(=O)[C@@H]1CCN(C(=O)[C@@H](N)Cc2c(C)cc(O)cc2C)C1)c1ccco1 the molecule record lists Ki as 0.00372
